System: plasma TAG
Assay: PK/PD model of plasma TAG after Oral Lipid Tolerance Test (Intralipos 20%)
Details: read-out: IC50 (free in vivo IC50, inhibition of exogenous TAG contribution to plasma); mouse OLTT, free plasma concentration
measured.endpoint: IC50 (nM)

• Cc1nc(C)c(-c2ccc(C3CCC(CC(=O)O)CC3)cc2)nc1C(N)=O (stereo not shown) [AZD7687] = 80

###

Assay: Population PK model of AZD7687 plasma concentrations in SAD and MAD studies (2-compartment, first order absorption)
Assay type: in vivo
Details: male, human, plasma; post dose, oral; read-out: T max in plasma
measured.endpoint: Tmax

• Cc1nc(C)c(-c2ccc(C3CCC(CC(=O)O)CC3)cc2)nc1C(N)=O (stereo not shown) = ≤ 1 h
